assay: Metabolic stability of test compounds in human liver microsomes; format: in vitro ADME; details: human, liver microsomes, pH 7.4, half-life in human liver microsomes, Table 4, Expt F; read-out: T1/2 (min) Expt F
Metric name: half-life (min)
Report only the number, with the unit min understood.

Q: Query (compound): [2H]C([2H])([2H])C([2H])(C([2H])([2H])[2H])C([2H])([2H])N(C[C@@H](O)[C@H](Cc1ccccc1)NC(=O)O[C@]1([2H])[C@@H]2CCO[C@@H]2OC1([2H])[2H])S(=O)(=O)c1ccc2occc2c1 ; field requested: half-life
Ans: 21.2

###

test: Metabolic stability of test compounds in human liver microsomes; assay type: in vitro ADME; conditions: human, liver microsomes, pH 7.4, half-life in human liver microsomes, Table 4, Expt J; read-out: T1/2 (min) Expt J
Metric name: half-life (min)
// note: answer is a bare numeric in min

Examples with answers:
Q: Query: half-life; subject: CC(C)CN(C[C@@H](O)[C@H](Cc1ccccc1)NC(=O)O[C@H]1CO[C@H]2OCC[C@H]21)S(=O)(=O)c1ccc2occc2c1 [Compound 303, reference compound]
Ans: 19.9

Q: // lookup half-life for Cc1nc(COc2ccc(C[C@H](NC(=O)O[C@H]3CO[C@H]4OCC[C@H]43)[C@H](O)CN(CC(C)C)S(=O)(=O)c3ccc4c(c3)OCO4)cc2)cs1 [Brecanavir, reference compound]
Ans: 2

Q: Entry [2H]C([2H])([2H])C([2H])(C([2H])([2H])[2H])C([2H])([2H])N(C[C@@H](O)[C@H](Cc1ccccc1)NC(=O)O[C@]1([2H])[C@@H]2CCO[C@@H]2OC1([2H])[2H])S(=O)(=O)c1ccc(NC(C)=O)cc1 [Compound 227] : reported half-life = ?
Ans: 7.1

***
Q: # lookup: half-life of [2H]C([2H])([2H])C([2H])(C([2H])([2H])[2H])C([2H])([2H])N(C[C@@H](O)[C@H](Cc1ccccc1)NC(=O)O[C@]1([2H])[C@@H]2CCO[C@@H]2OC1([2H])[2H])S(=O)(=O)c1ccc2occc2c1 [Compound 106]
Ans: 46.7

Q: Give the measured half-life of [2H]C([2H])([2H])C([2H])(C([2H])([2H])[2H])C([2H])([2H])N(C[C@@H](O)[C@H](Cc1ccccc1)NC(=O)O[C@]1([2H])[C@@H]2CCO[C@@H]2OC1([2H])[2H])S(=O)(=O)c1ccc2ncsc2c1 [Compound 229] .
Ans: 5.8

Q: // lookup half-life for CC(C)CN(C[C@@H](O)[C@H](Cc1ccccc1)NC(=O)O[C@H]1CO[C@H]2OCC[C@H]21)S(=O)(=O)c1ccc2ncsc2c1 [Compound 302, reference compound]
Ans: 6.4

###

Assay: Metabolic stability of test compounds in human liver microsomes
Format: in vitro ADME
Conditions: human, liver microsomes, pH 7.4, half-life in human liver microsomes, Table 4, Expt H; read-out: T1/2 (min) Expt H
Experimental: Determination of Metabolic Stability of Test Compounds in Human Liver Microsomes. […] 7.5 mM stock solutions of test compounds were prepared in DMSO. […] Supernatants were transferred to another 96-well plate and analyzed for amounts of parent compound remaining by LC-MS/MS using an Applied Bio-systems API 4000 mass spectrometer. […]
# half-life annotations
Entry rule: numbers only, all in min.

Worked examples follow.
Q: Would you kindly share the measured half-life for [2H]C([2H])([2H])C([2H])(C([2H])([2H])[2H])C([2H])([2H])N(C[C@@H](O)[C@H](Cc1ccccc1)NC(=O)O[C@]1([2H])[C@@H]2CCO[C@@H]2OC1([2H])[2H])S(=O)(=O)c1ccc(NC(C)=O)cc1 ?
Ans: 5.3

Q: What measured half-life goes with [2H]C([2H])([2H])C([2H])(C([2H])([2H])[2H])C([2H])([2H])N(C[C@@H](O)[C@H](Cc1ccccc1)NC(=O)O[C@]1([2H])[C@@H]2CCO[C@@H]2OC1([2H])[2H])S(=O)(=O)c1ccc2occc2c1 ?
Ans: 18.1

Proceed to the following item.
Q: Fill in the blank: the reported half-life of [2H]C([2H])([2H])C([2H])(C([2H])([2H])[2H])C([2H])([2H])N(C[C@@H](O)[C@H](Cc1ccccc1)NC(=O)O[C@]1([2H])[C@@H]2CCO[C@@H]2OC1([2H])[2H])S(=O)(=O)c1ccc2ncsc2c1 is ____.
Ans: 6.7
